Entry source: PubChem BioAssay (NCI)

// growth lookup, one value per entry
System: MDA-MB-468 breast
assayMethodText: NCI-60 one-dose screen, 48 h (100 = growth as untreated, 0 = no growth, -100 = all killed)
setupConditions: 10 µM unless noted
Experimental: Growth inhibition of the MDA-MB-468 human Breast tumor cell line is measured as a screen for anti-cancer activity. Cells are grown in 96 well plates and exposed to the test compound for 48 hours. Compounds are tested at a single concentration, which is 10^-5 M for most compounds. The reported endpoint is percent growth (GI% or GIPRCNT), where numbers from 0 - 100% represent growth inhibition, and numbers from -100% - 0 represent cell death. […]
About 83,000 compounds went through this panel and 20% of them were active in at least one assay; those are over-represented in the sample as a whole. The source made the active and inactive calls. Rule for the calls: active = growth percent below 10; inactive = the rest.
measure: growth

compound=COc1ccc(-c2cc3c(OC)c(OC)c(OC)cc3oc2=O)cc1 measure=growth recordedvalue="23.6% (inactive)"
compound="O=C(N/N=C/c1ccc2c(c1)OCO2)c1cnn2c1NC(c1ccccc1)C2 (stereo unspecified)" measure=growth recordedvalue="22.4% (inactive)"
compound=O=C(COc1cc(O)c2c(=O)cc(-c3ccccc3)oc2c1)Nc1ccccc1 measure=growth recordedvalue="103% (inactive)"
compound=CCCCCNCCCCCNc1cc(OC)cc2cccnc12 measure=growth recordedvalue="45.3% (inactive)"
compound=O=C(COc1ccc(-c2nc3ccccc3[nH]2)cc1)N=Nc1c(O)[nH]c2ccc(Cl)cc12 measure=growth recordedvalue="89.7% (inactive)"
compound=CCOC(=O)C(C#N)=C1CCN(C)CC1 measure=growth recordedvalue="123% (inactive)"
compound="OC1COC(OCc2ccccc2)C(O)C1O (stereo unspecified)" measure=growth recordedvalue="94.8% (inactive)"
compound=O=C(CSc1cc[n+](CCCCO)c2ccccc12)n1ccc2ccccc21 measure=growth recordedvalue="108% (inactive)"
compound=CCCCCCCCCCCCCC[n+]1ccc(C)cc1 measure=growth recordedvalue="-29.9% (active)"
compound=C#Cc1nc(Nc2cc(C)[nH]n2)c2ccccc2n1 measure=growth recordedvalue="-23.2% (active)"
compound=O=C(CCl)Nc1ccc2c(c1)C(=O)c1ccc(NC(=O)CCl)cc1C2=O measure=growth recordedvalue="-75.7% (active)"

* * *

Test system: NCI-H460 lung
assayMethodText: NCI-60 one-dose screen, 48 h (100 = growth as untreated, 0 = no growth, -100 = all killed)
setupConditions: 10 µM
Compounds without any hit were thinned out: in the full panel of roughly 83,000, 20% have a hit.
Classification scheme (growth): range 1: < 20%; range 2: ≥ 20% and < 60%; range 3: ≥ 60%

compound=O=C(c1ccccc1)c1ccc2nc(-c3ccccc3Br)[nH]c2c1 assignedlabel="range 1"
compound="C#CCOc1cc(N(CC)CC)ccc1C(C(=O)NC(C)(C)C)N(C(=O)C1CCc2cc(F)ccc2O1)c1ccc(F)cc1F (centres undefined)" assignedlabel="range 2"
compound=COc1cc2oc(-c3cccc(C(=O)Nc4ccc(Cl)cc4)c3)cc(=O)c2c(OCCNC(=O)[C@@H](N)CO)c1OC assignedlabel="range 2"
compound=O=C(c1ccc(F)cc1)C(c1c[nH]c2ccccc12)c1c[nH]c2ccccc12 assignedlabel="range 2"
compound=O=C(CC(=O)Nc1ccc(Oc2ncnc3scc(Nc4n[nH]c(=S)s4)c23)cc1)Nc1ccc(Br)cc1 assignedlabel="range 3"
compound=COc1ccc(-n2c(SCC(=O)NNS(=O)(=O)c3ccccc3)nc3ccc(Cl)cc3c2=O)cc1 assignedlabel="range 3"
compound=O=C(CSc1nc2ccccc2c(=O)n1-c1ccc(Cl)cc1)Nc1ccc(-c2nc3ccccc3[nH]2)cc1 assignedlabel="range 1"
compound=COc1ccc(Cc2nn(CC(=O)N/N=C/c3ccc([N+](=O)[O-])cc3)c(=O)c3c(C)noc23)cc1 assignedlabel="range 1"

* * *

System: MDA-MB-468 breast
assayMethodText: NCI-60 one-dose screen, 48 h (100 = growth as untreated, 0 = no growth, -100 = all killed)
setupConditions: 10 µM unless noted
About 83,000 compounds went through this panel and 20% of them were active in at least one assay; those are over-represented in the sample as a whole.
measure: growth (%)

compound=COc1cc(-c2nn(-c3cccc(NC(=O)c4ccccc4)c3)cc2-c2ccncc2)ccc1Cl recordedvalue=-19.7
compound="COc1ccc(CCN2C(=O)/C(=C/c3ccc(C4Oc5ccccc5C5CC(c6ccccc6)=NN54)cc3)SC2=S)cc1 (stereo not given)" recordedvalue=118
compound=O=c1/c(=C\c2ccc(-c3ccccc3)o2)sc2nc(-c3ccccc3)nn12 recordedvalue=124
compound=CCc1ccc(OCc2ccccc2C(=O)Nc2ccc3nc(C)cc(N)c3c2)cc1 recordedvalue=-58.4
compound="CCCCCCCCN(CCCCCCCC)CC(O)c1cc(Cl)ccc1OC (stereo not given)" recordedvalue=32.6

* * *

Test system: MDA-MB-468 breast
assayMethodText: NCI-60 one-dose screen, 48 h
setupConditions: 10 µM unless noted
About 83,000 compounds went through this panel and 20% of them were active in at least one assay; those are over-represented in the sample as a whole. Active and inactive are the calls of the source. Rule for the calls: active = growth percent below 10; inactive = the rest.
Possible outcomes: active, inactive

structurestring=CN1CCN(Cc2ccc(NC(=O)c3cncc(C#Cc4cnc5ccc(OCC6(C)COC6)nn45)c3)cc2C(F)(F)F)CC1 assignedlabel=active
structurestring=C[C@H](C(=O)N[C@@H](Cc1ccc(-c2ccccc2)cc1)C(=O)NC1CC(C)(C)N(C)C(C)(C)C1)c1ccc(-c2ccccc2)c(F)c1 assignedlabel=active
structurestring=COc1ccc(C(=O)c2sc3nc4c(c(-c5cccnc5)c3c2N)CCCC4)cc1OC assignedlabel=inactive
structurestring=COc1ccc(-n2nnc(C(=O)O)c2-c2cc(OC)c(OC)c(OC)c2)cc1 assignedlabel=inactive
structurestring=CC1=CC(=O)c2cccc(NC3=NCCO3)c21 assignedlabel=inactive

* * *

Test system: MDA-MB-468 breast
assayMethodText: NCI-60 one-dose screen, 48 h
setupConditions: 10 µM unless noted
The panel holds about 83,000 compounds, 20% with a hit somewhere; the sample as a whole holds those more often. Calls of active or inactive are those of the source. The calls were made as follows: active = growth percent below 10; inactive = the rest.
Possible outcomes: active, inactive

molecule=O=C1CSC(=S)N1/N=C/c1ccc(Cl)s1 assignedlabel=inactive
molecule=N#Cc1c(-c2ccc(Cl)cc2)nc(NN=Cc2ccc[nH]2)nc1N1CCOCC1 assignedlabel=inactive
molecule=Fc1ccc(Nc2nc(Nc3ccc(-c4nc5ccccc5[nH]4)cc3)c3cn[nH]c3n2)cc1 assignedlabel=active
molecule=Cc1cc2nc3cc(C)c(N)cc3[n+](-c3ccccc3)c2cc1N assignedlabel=active
molecule=Cc1ccc(/C=C/c2nn3c(-c4ccco4)nnc3s2)cc1 assignedlabel=inactive
molecule=Cc1cnc(Nc2ccc(OCCN3CCCC3)cc2)nc1Nc1cccc(S(=O)(=O)NC(C)(C)C)c1 assignedlabel=active
molecule=COC(=O)C(=C\c1ccc2c(c1)OCO2)/C(=C/c1ccc2c(c1)OCO2)C(=O)OC assignedlabel=inactive
molecule=C=C1CC[C@@H]2[C@](C)(CO)[C@H](O)CC[C@@]2(C)[C@@H]1C/C(O)=C1\CCOC1=O assignedlabel=inactive
molecule=Clc1ccc(-c2noc(/C=C\c3ccccc3)n2)cc1 assignedlabel=inactive
molecule=C[C@@H]1C(=O)N(C[C@H](Cc2ccccc2)NC(=O)OCc2ccccc2)[C@]1(Cc1ccccc1)C(=O)OCc1ccccc1 assignedlabel=inactive
molecule=Fc1ccc2[nH]cc(-c3nonc3-c3c[nH]c4ccc(Br)cc34)c2c1 assignedlabel=inactive
molecule=Cc1nn(C)c2ncnc(N/N=C/c3cccc(O)c3O)c12 assignedlabel=active
molecule=COc1ccccc1/C=C/C(=O)/C=C/c1ccccc1O assignedlabel=active
molecule=CCCCCn1ncc(-c2c(O)c(O)cc3c(O)c(-c4c(C)cc5c(-c6cnn(CCCCC)n6)c(O)c(O)cc5c4O)c(C)cc23)n1 assignedlabel=active
molecule="CC(=O)OCC(=O)C1CCC=CC1OC(C)=O (stereo not given)" assignedlabel=inactive
molecule=COC(=O)c1ccc(CSc2nnc(-c3c(C)nc4ccc(C)cn34)o2)cc1 assignedlabel=inactive
molecule="COc1cc(C2CC(c3ccccc3)=Nc3c(N)nc(N)nc3N2)ccc1Oc1nc(NCCO)nc(N2CCOCC2)n1 (stereo not given)" assignedlabel=inactive
molecule="CCn1cc(C2NC(=O)c3ccccc3N2)c2cccc(C)c21 (stereo not given)" assignedlabel=inactive
molecule=CN1CCN(Cc2ccc(NC(=O)c3cncc(C#Cc4cnc(N)c5ccncc45)c3)cc2C(F)(F)F)CC1 assignedlabel=inactive
molecule=NS(=O)(=O)c1ccc(C(=O)N=Nc2c(O)[nH]c3ccc(Cl)cc23)cc1 assignedlabel=inactive
molecule=c1ccc([P+](CCC[P+](c2ccccc2)(c2ccccc2)c2ccccc2)(c2ccccc2)c2ccccc2)cc1 assignedlabel=inactive
molecule=CC(=O)N1CC(Nc2ccc(OC(F)(F)F)cc2)=CC1=O assignedlabel=inactive
molecule=COc1cc(OC)c2c(c1Cl)O[C@]1(C2=O)C(OCc2ccccc2)=CC(=O)C[C@H]1C assignedlabel=active
molecule=Nc1c(S(=O)(=O)O)cc2c3c(cccc13)C(=O)OC2=O assignedlabel=inactive
molecule="COC(=O)C(C)NS(=O)(=O)/N=C1\\NC(=O)NC1=C(Cl)Cl (stereo not given)" assignedlabel=inactive
molecule=COc1ccc(NC(=O)c2cc(NCc3cc(O)ccc3O)ccc2O)cc1 assignedlabel=inactive
molecule="Cn1c(N2NC(=O)C(N=Nc3ccc(S(N)(=O)=O)cc3)C2=O)nc(-c2ccco2)c(C#N)c1=O (stereo not given)" assignedlabel=active
molecule=COc1ccc(-c2nn(-c3ccccc3)cc2/C=C/C(=O)NNC(=O)Nc2ccc(C)cc2)cc1 assignedlabel=inactive
molecule=CCCOC(=O)N[C@H]1CCc2c(Cl)c(OC)c(OC)c(OC)c2-c2ccc(SC)c(=O)cc21 assignedlabel=active
molecule=O=C(Nc1nc(-c2ccc(Cl)cc2)nc2c1sc(=S)n2-c1ccccc1)C(F)(F)F assignedlabel=inactive
molecule=COc1ccc(Cn2cc(C(=O)Nc3cccnc3Nc3ccccc3)nn2)cc1 assignedlabel=inactive
molecule=O=S(=O)(NCCNc1nccc(-c2c(-c3ccc(F)cc3)nc3sccn23)n1)c1ccc2ccccc2c1 assignedlabel=inactive
molecule="NC(Cc1ccc(O)c([N+](=O)[O-])c1)C(=O)O (stereo not given)" assignedlabel=inactive
molecule="COc1cc2c(c(OC)c1OC)C(=O)CC(c1cccc(C(=O)Nc3ccc(C#N)cc3)c1)O2 (stereo not given)" assignedlabel=inactive
molecule=COc1ccc(-c2nc(Nc3nc4ccccc4[nH]3)nc(N)c2C#N)cc1 assignedlabel=inactive
molecule="CC(=O)OC1/C=C\\CC/C=C\\C1 (stereo not given)" assignedlabel=inactive
molecule=Nc1ccc(C(OC(=O)c2cc3ccccc3c(Cc3c(O)c(C(=O)OC(c4ccc(N)cc4)(c4ccc(N)cc4)c4ccc(N)cc4)cc4ccccc34)c2O)(c2ccc(N)cc2)c2ccc(N)cc2)cc1 assignedlabel=active
molecule=COc1ccc(OC)c2c1[nH]c(=O)c1c3ccccc3cn21 assignedlabel=active
molecule=CCC(C)(C)c1cc(O)c(C(C)(C)CC)cc1O assignedlabel=active
molecule="COC(c1ccc2c(c1)OCO2)C(C)Br (stereo not given)" assignedlabel=inactive
